Experiment: Rat pharmacokinetics after single intraperitoneal injection of 100 mg/kg
Assay type: in vivo, Sprague–Dawley rats
Details: Sprague-Dawley, rat, ip; male rats, 100 mg/kg i.p., plasma
Measure name: Tmax (h)
Give the number; h is assumed, so skip it.

Respond only with Tmax recorded for COc1cc([C@@H]2COc3c(ccc(O)c3C)[C@@H]2c2ccc(O)cc2)cc(OC)c1O
1

###

Assay: Rat pharmacokinetics after single intraperitoneal injection of 100 mg/kg
Type: in vivo, Sprague–Dawley rats
Settings: Sprague-Dawley, rat, ip; female rats, 100 mg/kg i.p., plasma
Measure name: AUC(0-inf) (ng·h/mL)
The answer is to be given in ng·h/mL; state only the numeric part.

Return value of AUC(0-inf) for input COc1cc([C@@H]2COc3c(ccc(O)c3C)[C@@H]2c2ccc(O)cc2)cc(OC)c1O [TRX-E-002-1] , no commentary.
29500
